These entries and their values trace back to patent US20210275641A1.

Target: T1, human high affinity trimeric IL-2 receptor (CD25/CD122/CD132) (human, UniProt P01589 22-272; P14784 27-551; P31785 23-369)
T1 sequence 1: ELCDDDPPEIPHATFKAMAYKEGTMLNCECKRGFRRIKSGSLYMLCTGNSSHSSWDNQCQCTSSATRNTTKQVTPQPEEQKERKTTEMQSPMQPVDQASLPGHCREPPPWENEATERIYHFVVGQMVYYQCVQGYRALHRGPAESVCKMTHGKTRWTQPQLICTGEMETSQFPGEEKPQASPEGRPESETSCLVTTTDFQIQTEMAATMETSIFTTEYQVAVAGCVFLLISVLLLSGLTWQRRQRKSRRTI
T1 sequence 2: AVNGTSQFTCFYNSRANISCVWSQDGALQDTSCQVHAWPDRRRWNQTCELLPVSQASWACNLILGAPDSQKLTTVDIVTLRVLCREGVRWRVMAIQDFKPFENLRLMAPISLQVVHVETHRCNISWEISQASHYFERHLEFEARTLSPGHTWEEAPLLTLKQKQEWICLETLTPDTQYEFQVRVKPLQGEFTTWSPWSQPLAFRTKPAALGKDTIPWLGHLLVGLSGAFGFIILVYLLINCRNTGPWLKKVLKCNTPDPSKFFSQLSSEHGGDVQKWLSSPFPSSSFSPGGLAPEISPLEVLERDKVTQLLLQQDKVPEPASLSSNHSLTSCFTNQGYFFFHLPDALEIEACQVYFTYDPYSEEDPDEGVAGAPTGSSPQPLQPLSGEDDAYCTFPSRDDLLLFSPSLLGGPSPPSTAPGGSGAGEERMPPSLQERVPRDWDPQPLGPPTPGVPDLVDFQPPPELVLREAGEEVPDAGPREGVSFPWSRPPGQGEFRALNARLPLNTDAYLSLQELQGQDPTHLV
T1 sequence 3: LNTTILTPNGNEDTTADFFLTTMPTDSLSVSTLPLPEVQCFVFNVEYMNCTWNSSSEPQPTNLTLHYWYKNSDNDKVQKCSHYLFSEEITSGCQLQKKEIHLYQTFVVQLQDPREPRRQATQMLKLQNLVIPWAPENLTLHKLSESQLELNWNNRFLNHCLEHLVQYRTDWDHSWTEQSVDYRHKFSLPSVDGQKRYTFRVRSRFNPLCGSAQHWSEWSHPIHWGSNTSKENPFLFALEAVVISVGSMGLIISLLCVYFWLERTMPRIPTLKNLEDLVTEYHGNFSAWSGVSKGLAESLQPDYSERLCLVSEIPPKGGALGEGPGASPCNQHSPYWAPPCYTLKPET
Assay: cell-based or functional assay
MEASUREMENT TYPE: pSTAT5 ratio YT CD25/YT, dilution factor 8, upper table

1 = MEH (ligand) cytokine: APTSSSTKKTQLQLEHLMLDLEMILNGINNYKNPKLTRMLTFKFYMPKKATELKHLQCLEEELKPLEEVLNLAQSKNFHLRPRDLISNINVIVLELKGSETTFMCEYADETATIVEFLNRWITFCHSIISTLT
2 = QEH (ligand) cytokine: APTSSSTKKTQLQLEHLQLDLEMILNGINNYKNPKLTRMLTFKFYMPKKATELKHLQCLEEELKPLEEVLNLAQSKNFHLRPRDLISNINVIVLELKGSETTFMCEYADETATIVEFLNRWITFCHSIISTLT
Input: // pick min by pSTAT5 ratio YT CD25/YT, dilution factor 8, upper table: 1 , 2 Give the label under which the chosen entry appears.
Output: 1
